# test: Metabolic stability in rat liver microsomes in presence of NADPH and UGT at 15 mins by UHPLC-TSQ mass spectrometer
# Type: ADME, microsome
# settings: 0.25 h
So I've got a bunch of molecules here, and I need their Stability values.
Kindly answer with a numeric value in nM, unit omitted.

Task: // query Stability value for entry O=C(/C=C/c1nccn1-c1ccccc1)/C=C/c1nccn1-c1ccccc1
Result: 311.5

Task: // query Stability value for entry CC(C)CCn1ccnc1/C=C/C(=O)/C=C/c1nccn1CCC(C)C
Result: 706.2

Task: Request the reported Stability associated with COc1ccccc1-n1ccnc1/C=C/C(=O)/C=C/c1nccn1-c1ccccc1OC
Result: 914.7

Task: Reported Stability for COc1cc(/C=C/C(=O)CC(=O)/C=C/c2ccc(O)c(OC)c2)ccc1O : what is it?
Result: 200

The values you see were collected from ChEMBL document CHEMBL4229540.
